# Tested on: 633275-114-R-J1-PDC complex spheroids, viability;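 also: spheroids exposed to the agents for seven days; percent of DMSO vehicle control viability which is 100%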
# Method Notes: Anticancer human tumor 633275-114-R-J1-PDC patient-derived endometrial adenocarcinoma cell line growth inhibition [GQUAD]
# Settings: second compound 0.316 µM; first compound 0.0999 µM; stronger effect = lower value
# Description: DNA G-quadruplex Stabilizer Agents in Combinations in Complex Spheroids A high-throughput screen of multi-cell type tumor spheroids was designed to identify active combinations of DNA G-quadruplex stabilizer agents and targeted small molecules. […] Compounds. […] If the clinical Cmax for an agent had not been determined, the highest concentration tested was 10 microM. […]
Can you tell me viability, T/C for the items I'm about to list?
Give bare numbers, in %.

Known viability, T/C results, listed for orientation:
| Compound | viability, T/C [%] |
| --- | --- |
| CCc1c2c(nc3ccc(O)cc13)-c1cc3c(c(=O)n1C2)COC(=O)[C@]3(O)CC + Cc1[nH]c2ccc(F)cc2c1-c1nc2c3cccnc3c3ncccc3c2[nH]1 | 28 |
| Cc1[nH]c2ccccc2c1CCNCc1ccc(/C=C/C(=O)NO)cc1 + CN(C)c1ccc(Nc2c3ccc(NC(=O)CCN4CCCC4)cc3nc3cc(NC(=O)CCN4CCCC4)ccc23)cc1 | 41.2 |

For each of the compounds below, state viability, T/C.
1. CCc1c2c(nc3ccc(O)cc13)-c1cc3c(c(=O)n1C2)COC(=O)[C@]3(O)CC + CN(C)c1ccc(Nc2c3ccc(NC(=O)CCN4CCCC4)cc3nc3cc(NC(=O)CCN4CCCC4)ccc23)cc1
2. Cn1ncnc1[C@H]1c2n[nH]c(=O)c3cc(F)cc(c23)N[C@@H]1c1ccc(F)cc1 + CN(C)c1ccc(Nc2c3ccc(NC(=O)CCN4CCCC4)cc3nc3cc(NC(=O)CCN4CCCC4)ccc23)cc1
3. CC[C@@]1(O)C(=O)OCc2c1cc1n(c2=O)Cc2cc3c(CN(C)C)c(O)ccc3nc2-1 + Cc1cnc(CNC(=O)c2c(=O)c3ccc(N4CCCN(C)CC4)nc3n3c2sc2ccccc23)cn1
4. CC[C@@]1(O)C(=O)OCc2c1cc1n(c2=O)Cc2cc3c(CN(C)C)c(O)ccc3nc2-1 + CN(C)c1ccc(Nc2c3ccc(NC(=O)CCN4CCCC4)cc3nc3cc(NC(=O)CCN4CCCC4)ccc23)cc1

[29.4, 71.2, 34.7, 42.6]
